Target: choline kinase (CK) [EC 2.7.1.32] (Saccharomyces cerevisiae)
Sequence (P20485 2-582): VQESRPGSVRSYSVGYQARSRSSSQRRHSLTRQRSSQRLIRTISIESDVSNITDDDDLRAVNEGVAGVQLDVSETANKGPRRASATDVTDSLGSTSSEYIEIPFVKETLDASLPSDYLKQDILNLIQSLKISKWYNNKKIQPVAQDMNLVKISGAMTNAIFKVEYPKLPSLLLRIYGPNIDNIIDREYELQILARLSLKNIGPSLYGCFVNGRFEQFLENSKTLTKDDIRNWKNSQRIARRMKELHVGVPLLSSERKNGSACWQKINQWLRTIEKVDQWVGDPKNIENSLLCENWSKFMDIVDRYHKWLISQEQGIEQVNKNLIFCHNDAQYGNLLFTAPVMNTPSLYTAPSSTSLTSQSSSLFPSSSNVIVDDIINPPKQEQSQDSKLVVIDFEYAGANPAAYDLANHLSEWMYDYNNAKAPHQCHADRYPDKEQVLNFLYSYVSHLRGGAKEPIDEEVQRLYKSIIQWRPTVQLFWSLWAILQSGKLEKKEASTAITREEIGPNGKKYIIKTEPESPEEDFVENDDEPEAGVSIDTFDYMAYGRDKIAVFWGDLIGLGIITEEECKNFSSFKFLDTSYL
Quantity kind: IC50

Molecule: CN1CC[C@H](c2c(O)cc(O)c3c(=O)cc(-c4ccccc4Cl)oc23)[C@H](O)C1 [flavopiridol]
Result: < 500 nM
